test system: K-562 leukemia; experiment: NCI tumour cell line growth inhibition, 48 h; in the data active = GI50 below about 0.43 µM; inactive = the rest
Result category, one only: yes (active), no (inactive)

Worked examples, 8 compounds total:
Q: Outcome logged for COc1ccc(C2C(c3ccccc3)C(=O)N2c2cc(OC)c(OC)c(OC)c2)cc1I (centres undefined) in this assay:
Ans: yes

Q: Same lookup for Oc1ccc(/C=N/Nc2nc3ccccc3s2)c(O)c1 , please.
Ans: no

Q: Same lookup for CC1CCC2C(C)C3C(CC4C5CC=C6CC(OC7OC(CO)C(O)C(OC8OC(CO)C(O)C(O)C8O)C7OC7OC(C)C(O)C(O)C7O)CCC6(C)C5CCC43C)N2C1 (centres undefined) , please.
Ans: no

Q: Same lookup for COc1cccc(Cn2cc3c(c2)-c2oncc2CC3)c1 , please.
Ans: yes

Q: Same lookup for BrC(Br)(Br)c1cnc2ccccc2n1 , please.
Ans: no

Q: Same lookup for CC(F)(F)c1cc(F)ccc1-c1sc2cc(O)ccc2c1Oc1ccc(/C=C/C(=O)O)cc1 , please.
Ans: no

Q: Same lookup for CCOC(=O)N1C/C(=C/c2ccc(OC)cc2)C(=O)/C(=C/c2ccc(OC)cc2)C1 , please.
Ans: no

Q: Same lookup for Cc1ccccc1-n1c(/C=C\c2ccccn2)nc2ccccc2c1=O , please.
Ans: no

Attention now shifts to the item below.
Q: Outcome logged for CN(C)CCOc1nc2c3cccnc3cc(-c3cccc(Cl)c3)c2c2ncccc12 in this assay:
Ans: no

====

tested on: MDA-MB-435; assay: NCI tumour cell line growth inhibition, 48 h
Attribute measured: TGI

Q: Please tell me: TGI of CC(=O)NCC1(c2ccccc2)CCN(CC2COc3ccccc3O2)CC1 (stereo unspecified) , system MDA-MB-435?
Ans: > 100 µM

***
Q: Please tell me: TGI of C[C@H]1C(OCCOC2O[C@@H]3O[C@@]4(C)CC[C@H]5[C@H](C)CCC([C@H]2C)[C@@]35O4)O[C@@H]2O[C@@]3(C)CC[C@H]4[C@H](C)CCC1[C@@]24O3 (stereo partly specified) , system MDA-MB-435?
Ans: > 100 µM

Q: Same lookup for O=C1SC(c2ccc(Cl)cc2)(c2ccc(Cl)cc2)c2ccccc21 , please.
Ans: > 100 µM

Q: Same lookup for CC(C)CNc1nc(N)[nH]c(=O)c1NC=O , please.
Ans: > 100 µM

Q: Same lookup for NC(=O)C(=CN1C(=O)CC(=O)NC1=S)C(N)=O , please.
Ans: > 100 µM

Q: Same lookup for Cn1c2ccccc2c(=O)c2c(O)cc3c(c21)C=CC1(CCCC1)O3 , please.
Ans: > 100 µM

Q: Same lookup for Nc1nc(Cl)cc(NCC2(CO)CCC2)n1 , please.
Ans: > 100 µM

Q: Same lookup for Cn1cnc2c(OCC3CCCCC3)nc(N)nc21 , please.
Ans: > 100 µM

====

system: KM20L2 colon; assay: NCI tumour cell line growth inhibition, 48 h
Listed below: TGI values for each entry.

Worked examples, 3 molecules total:
Q: State the recorded TGI for this entry: CC(=O)c1c(O)ccc2c1CC(CC=O)O2 (centres undefined)
Ans: > 100 µM

Q: Same lookup for CC(NC(=O)/C(C#N)=C/c1ccc2[nH]ccc2c1)c1ccccc1 (centres undefined) , please.
Ans: 33.2 µM

Q: Same lookup for CN(C)[C@@H]1C(=O)C(C(=O)NCNCCCC(=O)O)=C(O)[C@@]2(O)C(=O)C3=C(O)c4c(O)cccc4[C@@](C)(O)[C@H]3C[C@@H]12 , please.
Ans: > 100 µM

Consider the additional molecule presented here.
Q: State the recorded TGI for this entry: CC(C)(C)C1CCC2(CC1)CCN(CCCN1CCOCC1)CC2
Ans: 5.24 µM

====

system: RXF 393 renal; experiment: NCI tumour cell line growth inhibition, 48 h
Listed below: TGI values for each entry.

Q: State the recorded TGI for this entry: O=C1NC(=O)C2(CCC(O)C2)c2cc[n+]([O-])cc21 (stereo not drawn)
Ans: > 100 µM

Q: Same lookup for O=C(O)c1ccc(N=Nc2cc(S(=O)(=O)O)c3cccnc3c2O)cc1 , please.
Ans: > 100 µM

***
Q: State the recorded TGI for this entry: COc1ccc(C2SC(N)=Nc3c2c(C)nn3C(=O)c2ccc(Cl)cc2)cc1 (stereo not drawn)
Ans: > 10 µM

Q: Same lookup for CS(=O)(=O)c1[nH]nc2[nH]c(=O)[nH]c(=O)c12 , please.
Ans: > 10 µM

Q: Same lookup for NC(=O)c1csc(CCCCCCc2nc(C(N)=O)cs2)n1 , please.
Ans: > 100 µM

====

test system: SN12C renal; assay: NCI tumour cell line growth inhibition, 48 h
Attribute measured: GI50

Q: State the recorded GI50 for this entry: COc1ccc2c(c1OC)-c1c(c3ccc([N+](=O)[O-])cc3c(=O)n1CCCN=[N+]=[N-])C2=O
Ans: 11.5 µM

***
Q: State the recorded GI50 for this entry: COc1cccc(Cn2cc3c(c2)-c2oncc2CC3)c1
Ans: 0.597 µM

Q: Same lookup for COc1ccccc1CNC(=O)C1c2ccccc2C(=O)N(CC(C)C)C1c1cccs1 (configuration not stated) , please.
Ans: 35 µM

Q: Same lookup for O=C1/C(=C/c2ccc([N+](=O)[O-])s2)Oc2ccccc21 , please.
Ans: 1.23 µM

Q: Same lookup for Cc1ccc(C2SCc3nc4ccc(C(=O)c5ccccc5)cc4n32)cc1 (configuration not stated) , please.
Ans: 11.4 µM

Q: Same lookup for Cc1[nH]nc2c1N=C(c1ccccc1F)c1cc(C#N)ccc1N2 , please.
Ans: 3.87 µM

Q: Same lookup for CCCC(=O)NC(c1ccc2c(c1)OCO2)c1ccc2cccnc2c1O (configuration not stated) , please.
Ans: 2.28 µM

Q: Same lookup for CCOC(=O)c1c(C)n(CC(C)C)c2c1cc1oc(=O)c(=O)n3cnc2c13 , please.
Ans: 10.7 µM

Q: Same lookup for CCOC(=O)c1cc2cc(NC(=O)c3cc4cc([N+](=O)[O-])ccc4n3C)ccc2n1C , please.
Ans: 16.3 µM

Q: Same lookup for C[C@@H]1CC[C@H]2C(COC/C=C/COCC3=C(C(F)(F)F)O[C@@H]4O[C@@]5(C)CC[C@H]6[C@H](C)CC[C@@H]3[C@@]46OO5)=C(C(F)(F)F)O[C@@H]3O[C@@]4(C)CC[C@@H]1[C@]32OO4 , please.
Ans: 0.0191 µM

Q: Same lookup for CCCCCCNC(=O)Oc1ccc(/C(=C(\C)c2ccccc2)c2ccc(OCCN3CCCCC3)cc2)cc1 , please.
Ans: 1.7 µM

Q: Same lookup for CC(F)(F)c1cc(F)ccc1-c1sc2cc(O)ccc2c1Oc1ccc(/C=C/C(=O)O)cc1 , please.
Ans: 14 µM

====

test system: MCF7 breast; experiment: NCI tumour cell line growth inhibition, 48 h
Attribute measured: TGI

Q: Please tell me: TGI of CC(C)(C)C1CCC2(CC1)CCN(CCCN1CCOCC1)CC2 , system MCF7 breast?
Ans: > 100 µM

Q: Same lookup for O=C1/C(=C/c2ccc(Cl)cc2)NC(=S)N1CN1CCOCC1 , please.
Ans: > 100 µM

Q: Same lookup for Cc1ccccc1-n1c(/C=C\c2ccccn2)nc2ccccc2c1=O , please.
Ans: 58.7 µM

Q: Same lookup for CN(C)c1ccc(/C=C2\N=C(N/N=C/c3ccccc3)NC2=O)cc1 , please.
Ans: > 100 µM

Q: Same lookup for CC1(C)C=C(/C=N/Nc2ccc(Br)cc2)C(C#N)=C(O)C1(C#N)C#N , please.
Ans: > 100 µM

***
Q: Please tell me: TGI of COc1cc(/C=C2/SC(c3ccccc3)N(c3ccc(Cl)cc3)C2=O)cc(OC)c1OC (stereo not drawn) , system MCF7 breast?
Ans: > 100 µM

Q: Same lookup for CC1(C)OC(=O)C(C)(C)OC1=O , please.
Ans: > 100 µM

Q: Same lookup for Cc1cc(S(=O)(=O)Nc2nc(N)nc(N3CCOCC3)n2)c(SCC(=O)O)cc1Cl , please.
Ans: > 10 µM

====

tested on: TK-10 renal; test: NCI tumour cell line growth inhibition, 48 h
Listed below: TGI values for each entry.

Worked examples, 2 compounds total:
Q: State the recorded TGI for this entry: O=c1oc2cc(O)ccc2c(O)c1C(c1ccccn1)c1c(O)c2ccc(O)cc2oc1=O
Ans: > 100 µM

Q: Same lookup for CC(=O)n1nc(-c2nc3ccccc3nc2Cl)cc1Cl , please.
Ans: > 100 µM

***
Q: State the recorded TGI for this entry: Cc1ccc(C2SCc3nc4ccc(C(=O)c5ccccc5)cc4n32)cc1 (configuration not stated)
Ans: 35.1 µM

Q: Same lookup for O=C(CCC(=O)N/N=C/c1ccccc1O)N/N=C/c1ccccc1O , please.
Ans: > 100 µM

Q: Same lookup for Cc1c2ncccc2nc2[nH]c3ccc(OCCN(C)C)cc3c12 , please.
Ans: 9.55 µM

Q: Same lookup for CCc1ccccc1-n1c2nc(=O)n(C)c(=O)c-2nc2ccccc21 , please.
Ans: 35.4 µM

Q: Same lookup for C[C@@H]1C[C@@H](O)[C@@]2(O)C13CC(=O)OC(C3)[C@@H](C)[C@@]2(C)CO (some centres not stated) , please.
Ans: > 100 µM

Q: Same lookup for O=C(CC1(O)C(=O)Nc2ccc(Br)cc21)c1ccc(C(=O)NCC2CCC3(CC2)OOC2(CCCCC2)OO3)cc1 (configuration not stated) , please.
Ans: 11.9 µM

Q: Same lookup for NC12CC3CC(C1)CC(Cl)(C3)C2 , please.
Ans: > 100 µM
